- ASSAY REMARKS: CCClick: 37% aq formaldehyde (5 mM, 5 eq) bridges the two exocyclic methylene carbons of a Fischer base dimer (two C-C bonds), then hemin (1 eq)/air oxidative dehydrogenation, one pot; Al2O3 column
- TEST CONTEXT: the molecule shown is the open-chain precursor; 13-membered ring; DMF; 1.0 mM; 37.0 °C; 12.0 h
Doc: threshold 40% (exclusive). Items with ring closure, isolated yield beneath it return yes (1); others return no (0).

// known answers, use as guide
| COMPOUND | ANSWER LABEL |
| --- | --- |
| C=C1N(CCCCCCN2C(=C)C(C)(C)c3c2ccc2ccccc32)c2ccccc2C1(C)C [FB3 -> CY-3] | yes (1) |
| C=C1N(CCCCCCN2C(=C)C(C)(C)c3ccccc32)c2ccccc2C1(C)C [FB5 -> CY-5] | yes (1) |
| C=C1N(CCCCCCN2C(=C)C(C)(C)c3c2ccc2ccccc32)c2ccc(OCCCCCC[P+](c3ccccc3)(c3ccccc3)c3ccccc3)cc2C1(C)C.[I-] [FB2 -> CY-2] | no (0) |

Kindly review the next compound as well.
query: Record C=C1N(CCCCCCN2C(=C)C(C)(C)c3c2ccc2ccccc32)c2ccc3ccccc3c2C1(C)C [FB1 -> CY-1] : is its ring closure, isolated yield strictly below 40%?
result: no (0)
